- Assay explanation: Substrate specificity of WNanoKAZ mutants, crude enzyme solution (Example 11)
- Format: biochemical
- Measurement context: Imax
Quantity name: Relative luminescence activity, Furimazine, Imax

INSERT INTO results (molecule, observed_measurement) VALUES
  ('WNanoKAZ-R166N: single amino acid-substituted WNanoKAZ mutant R166N; SEQ ID NO: 16 (protein) FTLADFVGDWQQTAGYNQDQVLEQGGLSSLFQALGVSVTPIQKVVLSGENGLKADIHVIIPYEGLSGFQMGLIEMIFKVVYPVDDHHFKVILHYGTLVIDGVTPNMIDYFGRPYEGIAVFDGKKITVTGTLWNGNKIIDERLINPDGSLLFRVTINGVTGWRLCENILA', 17),
  ('KAZ: 19 kDa protein of native Oplophorus luciferase having luminescence activity; SEQ ID NO: 2 (protein, listed as Oplophorus gracilirostris) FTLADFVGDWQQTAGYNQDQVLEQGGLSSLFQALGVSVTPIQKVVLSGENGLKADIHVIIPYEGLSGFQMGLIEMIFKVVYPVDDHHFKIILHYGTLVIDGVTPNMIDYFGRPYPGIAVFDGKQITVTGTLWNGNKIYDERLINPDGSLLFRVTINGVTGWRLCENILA', 0.2),
  ('WNanoKAZ-V90I: single amino acid-substituted WNanoKAZ mutant, valine 90 back to isoleucine; SEQ ID NO: 8 (protein) FTLADFVGDWQQTAGYNQDQVLEQGGLSSLFQALGVSVTPIQKVVLSGENGLKADIHVIIPYEGLSGFQMGLIEMIFKVVYPVDDHHFKIILHYGTLVIDGVTPNMIDYFGRPYEGIAVFDGKKITVTGTLWNGNKIIDERLINPDGSLLFRVTINGVTGWRLCERILA', 17),
  ('WNanoKAZ-I138Y: single amino acid-substituted WNanoKAZ mutant I138Y; SEQ ID NO: 14 (protein) FTLADFVGDWQQTAGYNQDQVLEQGGLSSLFQALGVSVTPIQKVVLSGENGLKADIHVIIPYEGLSGFQMGLIEMIFKVVYPVDDHHFKVILHYGTLVIDGVTPNMIDYFGRPYEGIAVFDGKKITVTGTLWNGNKIYDERLINPDGSLLFRVTINGVTGWRLCERILA', 11),
  ('WNanoKAZ-E115P: WNanoKAZ with substitution of proline for glutamic acid at position 115; SEQ ID NO: 10 (protein) FTLADFVGDWQQTAGYNQDQVLEQGGLSSLFQALGVSVTPIQKVVLSGENGLKADIHVIIPYEGLSGFQMGLIEMIFKVVYPVDDHHFKVILHYGTLVIDGVTPNMIDYFGRPYPGIAVFDGKKITVTGTLWNGNKIIDERLINPDGSLLFRVTINGVTGWRLCERILA', 13);
